test system: HIV-1 protease wild type protein (Human immunodeficiency virus type 1 group M subtype B, UniProt P04585)
Construct: 20 μl of 0.2−1 nM HIV-1 protease wild type or mutant protein
procedure details: Biochemical Protease Assay
# note: exactly 10 nM is not below, so it is Not met; use Met for IC50 strictly under it

{"columns": ["compound", "group"],
 "data": [
  ["Cc1cc(-c2cccc(S(C)(=O)=O)c2)c(Cl)cc1C1=C(N)[C@@]2(CCCN(CC(=O)NCc3cccs3)C2)OC1=O (single isomer, unassigned)", "Met"],
  ["Cc1cc(-c2cccc(S(C)(=O)=O)c2)c(Cl)cc1C1=C(N)[C@@]2(CCCN(CC(=O)NCc3ccccc3)C2)OC1=O (single isomer, unassigned)", "Not met"],
  ["Cc1cc(-c2cccc(O)c2)c(Cl)cc1C1=C(N)C2(CCCN(CC(=O)NCc3ccccc3)C2)OC1=O (stereo not drawn)", "Not met"],
  ["CCC(C)CNC(=O)CN1CCCC2(C1)OC(=O)C(c1cc(Cl)c(-c3cccc(S(C)(=O)=O)c3)cc1C)=C2N (stereo not drawn)", "Not met"],
  ["Cc1cc(-c2cccc(S(C)(=O)=O)c2)c(Cl)cc1C1=C(N)C2(CCCN(CC(=O)NCc3cccc(F)c3F)C2)OC1=O (stereo not drawn)", "Met"]
]}

Proceed to the following item.
Query: # TODO verify IC50 < 10 nM strictly for this compound: "Cc1cc(-c2cccc(NS(=O)(=O)CCN3CCOCC3)c2)c(Cl)cc1C1=C(N)C2(CCCCC2)OC1=O"
Response: Not met
